Target: HIV-1 reverse transcriptase (HIV RT) (Human immunodeficiency virus) (UniProt P03366+P03366)
Assay: EMSA
Conditions: TNA at all positions; ~500 pM after 1 h 37 C with snake venom phosphodiesterase (p160)
ATTRIBUTE MEASURED: Kd (pM)
The response must be a number in pM with no trailing unit.

## Task // fetch Kd given entry AATAGTAAATTGATTTAAAAATTTCATAAATGCTACATAA [HIV-RT 3.17]
## Result 196

====

Target: HIV-1 reverse transcriptase (HIV RT) (Human immunodeficiency virus) (UniProt P03366+P03366)
Assay: MST
Conditions: TNA at all positions; triplicate
ATTRIBUTE MEASURED: pKd
Remember, pKd is on a log scale: it is -log10 of the molar concentration.

## Task // fetch pKd given entry AATAGTAAATTGATTTAAAAATTTCATAAATGCTACATAA [HIV-RT 3.17]
## Result 9.42
